molecular target: mu opiate receptor (MOR) (Rattus norvegicus); construct: from tissue; host or cells: striatum (membrane preparation); type: biochemical
Measured % DAMGO + BFNA, listed per entry.
readout.name: % DAMGO + BFNA (%)

[[record]]
molecule = "COc1cccc(S(=O)(=O)N2CCC3(CC2)OCCN3S(=O)(=O)c2cccc(OC)c2)c1 [Compound C0002]"
quantity_unit = "%"
readout_value = 6.1

[[record]]
molecule = "COc1ccc(S(=O)(=O)N2CCC3(NCCO3)C3CCCCC32)cc1 (centres unmarked) [Compound C0144M-2]"
quantity_unit = "%"
readout_value = 137.9

[[record]]
molecule = "CC1CCC(C(C)C)C(OCC(CN2CC(C)OC(C)C2)NCc2ccccc2)C1 (centres unmarked) [Compound A0033]"
quantity_unit = "%"
readout_value = 159.9

[[record]]
molecule = "O=S(=O)(c1ccccc1)N1CCC2(CC1)OCCN2S(=O)(=O)c1ccccc1 [Compound C0016]"
quantity_unit = "%"
readout_value = 150.9

[[record]]
molecule = "COc1c2c(cc3c1C(CC(=O)/C=C/c1ccc(Cl)cc1)[N+](C)(C)CC3)OCO2 (centres unmarked) [Compound B0019]"
quantity_unit = "%"
readout_value = 123.3

[[record]]
molecule = "COc1ccccc1CCC(=O)CC1c2c(cc3c(c2OC)OCO3)CC[N+]1(C)C (centres unmarked) [Compound B0045]"
quantity_unit = "%"
readout_value = 257.1

[[record]]
molecule = "CC(=O)c1ccc(S(=O)(=O)N2CC(CN(C)C)OC23CCN(C)CC3)cc1 (centres unmarked) [Compound C0108M]"
quantity_unit = "%"
readout_value = 158.6

[[record]]
molecule = "O=C1CN(Cc2ccccc2)C2(CCN(S(=O)(=O)c3cc(Cl)cc(Cl)c3O)CC2)N1 [Compound C0138M]"
quantity_unit = "%"
readout_value = 131.0

[[record]]
molecule = "O=[N+]([O-])c1ccc(S(=O)(=O)N2CCC3(CC2)NCCCO3)cc1 [Compound C0045]"
quantity_unit = "%"
readout_value = 634.3

[[record]]
molecule = "CC1CN(CC(O)COc2ccccc2)CC(C)O1 (centres unmarked) [Compound A0025]"
quantity_unit = "%"
readout_value = 198.5

[[record]]
molecule = "CC(=O)Nc1ccc(S(=O)(=O)N2CCC3(CC2)OCCN3S(=O)(=O)c2ccc(NC(C)=O)cc2)cc1 [Compound C0013]"
quantity_unit = "%"
readout_value = 61.8


---

biological target: mu opiate receptor (MOR) (Rattus norvegicus, UniProt P33535); construct: from tissue; host or cells: striatum (membrane preparation); format: biochemical
Sequence (P33535 whole entry): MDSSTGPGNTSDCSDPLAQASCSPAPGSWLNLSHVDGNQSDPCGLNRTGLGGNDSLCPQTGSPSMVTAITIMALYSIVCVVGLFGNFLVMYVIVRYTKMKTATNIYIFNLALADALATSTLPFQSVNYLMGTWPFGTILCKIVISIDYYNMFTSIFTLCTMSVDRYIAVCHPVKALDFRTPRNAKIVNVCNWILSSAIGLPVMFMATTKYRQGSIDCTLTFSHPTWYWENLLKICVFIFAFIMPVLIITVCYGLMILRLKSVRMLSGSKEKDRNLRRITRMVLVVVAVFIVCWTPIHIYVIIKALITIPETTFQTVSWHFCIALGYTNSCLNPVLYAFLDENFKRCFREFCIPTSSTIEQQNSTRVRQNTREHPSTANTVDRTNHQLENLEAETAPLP
# rule met = % DAMGO (1 μM) below 90% (exclusive); rule not met = % DAMGO (1 μM) at/above 90%

[[record]]
compound = "CNc1ccc(S(=O)(=O)N2CCC3(CC2)OCCN3S(=O)(=O)c2ccc(NC)cc2)cc1 [Compound C0024]"
qualitative_label = "rule met"

[[record]]
compound = "CC1CCC(C(C)C)C(OCC(O)CN2CCc3ccccc3C2)C1 (centres unmarked) [Compound A0040]"
qualitative_label = "rule met"

[[record]]
compound = "CC(=O)c1ccc(C(=O)N2CCC3(CC2)OCCN3S(=O)(=O)c2ccc(C(C)=O)cc2)cc1 [Compound C0052]"
qualitative_label = "rule met"

[[record]]
compound = "COc1cccc(OC)c1C(=O)CC1c2c(cc3c(c2OC)OCO3)CC[N+]1(C)C (centres unmarked) [Compound B0023]"
qualitative_label = "rule not met"

[[record]]
compound = "CC1CCC(C(C)C)C(OCC(O)CN(C(C)C)C(C)C)C1 (centres unmarked) [Compound A0037]"
qualitative_label = "rule met"

[[record]]
compound = "O=S(=O)(c1cccs1)N1CCC2(CC1)OCCN2S(=O)(=O)c1cccs1 [Compound C0141M]"
qualitative_label = "rule not met"

[[record]]
compound = "CC(=O)c1ccc(S(=O)(=O)N2CCC3(CC2)NC(=O)C(Cc2cnc[nH]2)N3S(=O)(=O)c2ccc(C(C)=O)cc2)cc1 (centres unmarked) [Compound C0084M]"
qualitative_label = "rule not met"

[[record]]
compound = "COc1c2c(cc3c1C(CC(=O)CCc1ccc(O)cc1)[N+](C)(C)CC3)OCO2 (centres unmarked) [Compound B0028]"
qualitative_label = "rule not met"

[[record]]
compound = "COc1c2c(cc3c1C(CC(=O)CCc1ccc(Cl)cc1)[N+](C)(C)CC3)OCO2 (centres unmarked) [Compound B0017]"
qualitative_label = "rule met"

[[record]]
compound = "N#Cc1ccccc1S(=O)(=O)N1CCC2(CC1)OCCN2S(=O)(=O)c1ccccc1C#N [Compound C0004]"
qualitative_label = "rule met"

[[record]]
compound = "COc1ccc(S(=O)(=O)N2CCOC23CCN(C(C)C)CC3)cc1 [Compound C0133M]"
qualitative_label = "rule not met"

[[record]]
compound = "CCN(CC)CC(O)COC1CC(C)CCC1C(C)C (centres unmarked) [Compound A0032]"
qualitative_label = "rule not met"

[[record]]
compound = "CC1CCC(C(C)C)C(OCC(O)CN2CCCCC2=O)C1 (centres unmarked) [Compound A0036]"
qualitative_label = "rule met"

[[record]]
compound = "COc1ccc(C(=O)CC2c3c(cc4c(c3OC)OCO4)CC[N+]2(C)C)cc1C (centres unmarked) [Compound B0021]"
qualitative_label = "rule not met"

[[record]]
compound = "CC(=O)c1ccc(S(=O)(=O)N2CCC3(CC2)NC(=O)CN3S(=O)(=O)c2ccc(C(C)=O)cc2)cc1 [Compound C0064]"
qualitative_label = "rule not met"

[[record]]
compound = "CC(C)c1ccc(S(=O)(=O)N2CCC3(CC2)OCCN3S(=O)(=O)c2ccc(C(C)C)cc2)cc1 [Compound C0007]"
qualitative_label = "rule met"

[[record]]
compound = "CC1CCC(C(C)C)C(OCC(O)CN2CC(C)CC(C)C2)C1 (centres unmarked) [Compound A0008]"
qualitative_label = "rule not met"

[[record]]
compound = "COc1ccc(OCC(O)Cn2ccc3ccccc32)cc1 (centres unmarked) [Compound A0077]"
qualitative_label = "rule not met"

[[record]]
compound = "CC(=O)c1ccc(S(=O)(=O)N2CCC3(CC2)OCCN3S(=O)(=O)c2ccc(C(C)=O)cc2)cc1 [Compound C0011]"
qualitative_label = "rule not met"

[[record]]
compound = "COCOc1ccc(C(=O)CC2c3c(cc4c(c3OC)OCO4)CC[N+]2(C)C)cc1C (centres unmarked) [Compound B0041]"
qualitative_label = "rule met"

[[record]]
compound = "CC1CN(CC(O)COc2ccccc2C(C)C)CC(C)O1 (centres unmarked) [Compound A0029]"
qualitative_label = "rule met"

[[record]]
compound = "O=C(c1ccc([N+](=O)[O-])cc1)N1CCC2(CC1)OCCN2S(=O)(=O)c1ccc([N+](=O)[O-])cc1 [Compound C0033]"
qualitative_label = "rule met"


---

target: mu opiate receptor (MOR) (Rattus norvegicus, UniProt P33535); construct: from tissue; host or cells: striatum (membrane preparation); format: biochemical; conditions: [35S]GTPγS binding to Gαo in striatal membranes; compound 1 μM plus 1 μM β-funaltrexamine (MOR antagonist)
Below, each entry is listed alongside its reported Concentration of FLNA-Binding Compound as Agonist 1 μM + BFNA.
readout.name: Concentration of FLNA-Binding Compound as Agonist 1 μM + BFNA (%)

[[record]]
compound = "CC1CCC(C(C)C)C(OCC(O)CN2CCCCCCC2)C1 (centres unmarked)"
readout_value = 140.8

[[record]]
compound = "COc1ccc(C(=O)CC2c3c(cc4c(c3OC)OCO4)CC[N+]2(C)C)cc1OC (centres unmarked)"
readout_value = 28.8

[[record]]
compound = "COc1c2c(cc3c1C(CC(O)CCc1ccccc1)[N+](C)(C)CC3)OCO2 (centres unmarked)"
readout_value = 40.9

[[record]]
compound = "O=C(c1ccc([N+](=O)[O-])cc1)N1CCC2(CC1)OCCN2S(=O)(=O)c1ccc([N+](=O)[O-])cc1 [Compound C0033]"
readout_value = 76.6

[[record]]
compound = "COc1c2c(cc3c1C(CC(=O)CCc1ccc(F)cc1)[N+](C)(C)CC3)OCO2 (centres unmarked)"
readout_value = 45.6

[[record]]
compound = "COc1c2c(cc3c1C(CC(=O)c1ccc(C#N)cc1)[N+](C)(C)CC3)OCO2 (centres unmarked)"
readout_value = 28.0

[[record]]
compound = "CC(=O)c1ccc(OCC(O)CN2CC(C)OC(C)C2)cc1 (centres unmarked)"
readout_value = 134.7

[[record]]
compound = "COc1ccc(C(=O)N2CCOC23CCN(S(=O)(=O)c2ccc(OC)cc2)CC3)cc1"
readout_value = 52.8


---

Measured % DAMGO (1 μM), listed per entry for reference.
molecular target: mu opiate receptor (MOR) (Rattus norvegicus, UniProt P33535); construct: from tissue; host or cells: striatum (membrane preparation); type: biochemical
readout.name: % DAMGO (1 μM) (%)

[[record]]
compound = "COc1ccc(S(=O)(=O)N2CCC3(NCCO3)C3CCCCC32)cc1 (centres unmarked) [Compound C0144M-2]"
quantity_unit = "%"
readout_value = 90.8

[[record]]
compound = "COc1ccc(CC(=O)CC2c3c(cc4c(c3OC)OCO4)CC[N+]2(C)C)c(OC)c1 (centres unmarked)"
quantity_unit = "%"
readout_value = 77.0

[[record]]
compound = "COc1ccc(C(=O)N2CCOC23CCN(S(=O)(=O)c2ccc(OC)cc2)CC3)cc1"
quantity_unit = "%"
readout_value = 68.1

[[record]]
compound = "Cc1cccc(S(=O)(=O)N2CCC3(CC2)OCCN3S(=O)(=O)c2cccc(C)c2)c1"
quantity_unit = "%"
readout_value = 59.2

[[record]]
compound = "COc1ccc(CCC(O)CC2c3c(cc4c(c3OC)OCO4)CCN2C)cc1 (centres unmarked)"
quantity_unit = "%"
readout_value = 87.8

[[record]]
compound = "COc1ccc(S(=O)(=O)N2CCC3(CC2)OCCN3S(=O)(=O)c2ccc(OC)cc2)cc1"
quantity_unit = "%"
readout_value = 94.8

[[record]]
compound = "COc1c2c(cc3c1C(CC(=O)CCc1ccc(F)cc1)[N+](C)(C)CC3)OCO2 (centres unmarked)"
quantity_unit = "%"
readout_value = 53.5

[[record]]
compound = "O=S(=O)(c1ccc(F)cc1)N1CCC2(CC1)OCCN2S(=O)(=O)c1ccc(F)cc1"
quantity_unit = "%"
readout_value = 113.1

[[record]]
compound = "CCOC(=O)CN1CCC2(CC1)OCCN2S(=O)(=O)c1ccc(C(C)=O)cc1 [Compound C0099M]"
quantity_unit = "%"
readout_value = 88.0

[[record]]
compound = "CN1CCC2(CC1)NCC(=O)N2Cc1ccccc1 [Compound C0105M]"
quantity_unit = "%"
readout_value = 88.8

[[record]]
compound = "CC1CCC(C(C)C)C(OCC(O)CN2CCC(=O)CC2)C1 (centres unmarked)"
quantity_unit = "%"
readout_value = 68.6

[[record]]
compound = "CC1CCC(C(C)C)C(OCC(O)CN2CCc3ccccc32)C1 (centres unmarked)"
quantity_unit = "%"
readout_value = 115.7

[[record]]
compound = "COc1cc(C(=O)CC2c3c(cc4c(c3OC)OCO4)CC[N+]2(C)C)cc(OC)c1OC (centres unmarked)"
quantity_unit = "%"
readout_value = 80.4

[[record]]
compound = "COc1c2c(cc3c1C(CC(=O)c1cccc(C(F)(F)F)c1)[N+](C)(C)CC3)OCO2 (centres unmarked)"
quantity_unit = "%"
readout_value = 47.5


These entries and their values trace back to patent US10760052B2.
